- System: Pseudomonas syringae pv. tomato
- protocol: MIC and lethal concentration (LC) assay (Example 3)
- Type: cell-based
- experimental parameters: >90% inhibition; 1-2 days at 25° C.; Table 2
No end group written: not given here.
readout: MIC

Guide cases for MIC, answers given:
substance	readout	result
KRRKLIKILKLIIKLIRKKR-NH2 [SP13-6]	MIC	2.5 µg/mL
KRRLFLFRLFRLFLRLFLKK-NH2 [SP13-12]	MIC	5.0 µg/mL
KRRLILRILRLAIRALVKKR-NH2 [SP13-2]	MIC	10/>10 μg/ml
KRRKAIKILKLIAKLIRKKR-NH2 [SP13-8]	MIC	10/>10 μg/ml
KRRLALFRAFRLALKSVLKK-NH2 [SP13-10]	MIC	1.0/1.0 μg/ml

[ask] I have this substance here, KRRKLAFRAFRFALKAVLKK-NH2 [SP13-13] , and I need its recorded MIC.
[reply] 2.5 µg/mL
